assay_text: folding stability dG unfold from chymotrypsin proteolysis; higher = more stable
measure_name: folding stability dG unfold (kcal/mol)
Numeric only. Scale: kcal/mol

The sequence identified as TIKELAKKLGGPITVETEQYPIENPDGNPYYITDIEVQVNPNDGSLRINYEVYNPGNGKKQEEEDTIPLDDS [r1_448_TrROS] registered its folding stability dG unfold at -0.708

The sequence identified as SAGGSAGGSMSPEEARALAEALAEALGEPDVEVLEVVQTENPAADSTTVTVTIRLPDGSVRVLSAGGSAGGS [r12_508_JUSTAS] registered its folding stability dG unfold at 1.48

The sequence identified as SAGQTIRIDEIYPHPDGFLIKIRYPDGKVHTFPIKPNMPITVDGDTITITFPGGPITIPLENMEIEILPSAG [r5_999_TrROS] registered its folding stability dG unfold at 3.17

The sequence identified as SAGGSAGGSPVLVRVYARDEDGNETPVAEIALPVENDNPEEAAKKAREIAKKLGVKEYRVEIESAGGSAGGS [r12_569_TrMRF] registered its folding stability dG unfold at 1.56

The sequence identified as SAGGSAGGSAMLTLRFELPDGSERELRLPGVTPEEAAALAAELARREGVARVEVYPPGVERSAGGSAGGSAG [r3_160_JUSTAS] registered its folding stability dG unfold at 0.532

The sequence identified as SAMKVEKLEELPDKEILKVEATPEELRKIVEELAKANPGYEVSYKILEEEPIALITLTPIPKGPKENLVSAG [r14_600_JUSTAS] registered its folding stability dG unfold at 0.0174

The sequence identified as SAGKKVTIKAIVRVKLANGEWFEAKVKEVTFDEETGEVTITVEVDGKTYTITVPLEDIELVDDAEEALKSAG [r5_15_TrROS_Hall] registered its folding stability dG unfold at 3.72

The sequence identified as SENWEPEPITFPDGITIWVMPDYGMIDIIDPDKGTFEMFMIRVDPNGKPEINPLTFKLDPPNGKIKDITPSA [r9_122_TrROS] registered its folding stability dG unfold at 0.572

The sequence identified as SAGGSAGGNPDLVITFPDGVKITVHPDGTITITRFIPGRDVPVGTRTITVPAPDGIPLEELLKYSAGGSAGG [r6_572_TrMRF] registered its folding stability dG unfold at 1.2

The sequence identified as SAGGSAGGSELPDGPALVVLPINSKPVVALAKVNSTGKIEVYIPNPGKKFTFDLDQAEVYPVLSAGGSAGGS [r12_782_TrMRF] registered its folding stability dG unfold at 0.533

The sequence identified as SAGGSKIHIPIDPESGNFRIKVYPPDEPKEVSIQFKDPDDPEEFMDRAIEEANEYANNGYRVEIEPSAGGSA [r2_118_TrROS] registered its folding stability dG unfold at -0.278

The sequence identified as SAGGMTLEELKAKITKVEVEEREDGSLKLRLTIKVKNEDGSEEEIELTITLPEEEKNMSLEELLEKLLSAGG [r13_319_TrROS_Hall] registered its folding stability dG unfold at 3.82

The sequence identified as SAGDISPSDPVTVRVEVEKDPNSKSTLVRVDEETPTGRRLERRIPADGPVVVTEREPASGATRVTVEPASAG [r5_55_JUSTAS] registered its folding stability dG unfold at 0.00901

The sequence identified as SAGMTTLTLSAKAPPGEAVVTLTVTLPDGTTVPLATRTVAPDEVANITVSFPSGEPIDPARLTVEVTPPSAG [r5_287_JUSTAS] registered its folding stability dG unfold at 0.137

The sequence identified as SAGRRSLVLLAPVDDPARAPTAEELARELLALGGTPATRPRAEPLEDDTLRVTFEAPGVDVTVLVDLRASAG [r5_144_TrMRF] registered its folding stability dG unfold at 0.638

The sequence identified as SAGGSAGGSAGGDNVLILVKLPKGYRVYSINDPEVLKAVTLKELKDELEKKTGYPVEVLPSAGGSAGGSAGG [r7_259_TrMRF] registered its folding stability dG unfold at 1.66

The sequence identified as SAGSKEALLSDPSFEPVEVEIHLEIEVPGVTPEEAEAIAKELEKEITEELKKKGIKNVKVTVTIRYVERSAG [r5_431_JUSTAS] registered its folding stability dG unfold at 2.49

The sequence identified as SAGGSAKITPGEEINFMFYNPENGQPFMVRIRIEKITVKRKPKDGKRKVEYKIKIEMSPGMKEITISAGGSA [r15_248_TrROS] registered its folding stability dG unfold at 3.32

The sequence identified as SNWITLKHTIKHPGREIKIEITAQPNPGGPYWIQVNIEVRDPNGEKEEVEITVPFRGMSIEDFLKNAADASA [r9_217_TrROS] registered its folding stability dG unfold at 4.46

The sequence identified as SAGGSMNPYSETITVNLPVPTPSGGSVVRPVTVPISIVYEDEKELEEALKKAKEEAEAAARKALGLESAGGS [r16_339_JUSTAS] registered its folding stability dG unfold at 0.685

The sequence identified as SAGGSMTAEELAEELAARHPDATVERSPSGVVTFRLPATGLTVTVSSGAGELRITVEDPTVPRRTLESAGGS [r16_478_JUSTAS] registered its folding stability dG unfold at -0.527

The sequence identified as SAGGSAGGSAGGMTIVLNIPKEELTEEEIKKLKESLPSDNPVKIIVKPKPPRKFYPKSTISAGGSAGGSAGG [r7_979_JUSTAS] registered its folding stability dG unfold at 1.12

The sequence identified as SAGEKTVKIKLPNTKTITVKVKKNEKKILYLPNGEKILITDVKKGKVSLKKGITYVKDKNGKWYPLKYKSAG [r5_417_TrMRF] registered its folding stability dG unfold at 1.86

The sequence identified as SAGGSAGGSTVTIEIPGFKTPEEIAKAIAEKTGKKVKEVKVEKDKKNKTYTITVTVDGKEITFSAGGSAGGS [r12_935_TrROS_Hall] registered its folding stability dG unfold at 1.03

The sequence identified as SATTTLNLSSVEELKELVEKLIAEGNPEATLTVTLYPPSGESSTKSFSSVEEVIEELKKGPASVTITVTSSA [r9_589_JUSTAS] registered its folding stability dG unfold at 2.7

The sequence identified as SAGGSAGGSAGKIKVEKDKKTNEYRVTIELFDKNGKPVKKIEITVKKEDLPKIKELLKKLSAGGSAGGSAGG [r11_77_TrROS_Hall] registered its folding stability dG unfold at 3.6

The sequence identified as SAGGHHMTIETFEEPDKLTVVVDGDDPEATREYLLQKVKEESSRKPVKVTFTEDPNGKLTITFDLKEESAGG [r13_158_JUSTAS] registered its folding stability dG unfold at -0.186
